Recorded values, source patent US20200262877A1.

target: Kv1.3 (Homo sapiens); construct: host or cells: HEK293 or CHO; experiment: cell-based; type: cell-based; details: peptide at 0.2 μM; 100% = no change, <100% = inhibition
Sequence (P22001 whole entry): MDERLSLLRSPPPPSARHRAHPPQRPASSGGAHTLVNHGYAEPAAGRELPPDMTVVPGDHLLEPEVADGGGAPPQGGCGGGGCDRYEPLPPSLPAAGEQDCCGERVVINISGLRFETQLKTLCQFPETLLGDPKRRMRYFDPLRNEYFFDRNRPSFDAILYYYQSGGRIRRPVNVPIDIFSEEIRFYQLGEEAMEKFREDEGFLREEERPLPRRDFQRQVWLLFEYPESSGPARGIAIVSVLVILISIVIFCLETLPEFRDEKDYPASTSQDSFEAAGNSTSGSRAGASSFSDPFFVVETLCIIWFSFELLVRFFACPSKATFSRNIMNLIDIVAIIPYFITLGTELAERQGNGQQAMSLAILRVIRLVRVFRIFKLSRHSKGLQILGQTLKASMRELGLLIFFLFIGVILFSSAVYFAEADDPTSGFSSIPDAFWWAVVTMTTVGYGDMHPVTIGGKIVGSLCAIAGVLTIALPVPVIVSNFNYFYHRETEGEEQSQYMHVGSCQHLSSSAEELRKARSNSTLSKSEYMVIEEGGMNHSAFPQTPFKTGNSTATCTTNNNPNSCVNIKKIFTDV
Quick reference for Activity of Kv1.3 with peptide, expressed as a percentage of the reference compound among some substances
Reply numerically in %, unit not repeated.

Would you please look over these solved cases?
* 39 (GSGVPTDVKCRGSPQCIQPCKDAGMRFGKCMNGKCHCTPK) [compound 39] | 7
* 6 (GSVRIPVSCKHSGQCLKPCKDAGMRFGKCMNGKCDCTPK) [compound 6] | 25
* 25 (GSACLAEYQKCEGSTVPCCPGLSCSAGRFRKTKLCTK) [compound 25] | 74

Lab note: next substance to report on.
**Query** Requested read-out: Activity of Kv1.3 with peptide, expressed as a percentage of the reference compound. Entry: 10 (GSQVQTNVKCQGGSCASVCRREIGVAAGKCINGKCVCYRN) [compound 10]
**Result** 101

---

Target: Nav1.7 (Homo sapiens, UniProt Q15858)
Construct: host or cells: HEK293 or CHO
Sequence (Q15858 whole entry): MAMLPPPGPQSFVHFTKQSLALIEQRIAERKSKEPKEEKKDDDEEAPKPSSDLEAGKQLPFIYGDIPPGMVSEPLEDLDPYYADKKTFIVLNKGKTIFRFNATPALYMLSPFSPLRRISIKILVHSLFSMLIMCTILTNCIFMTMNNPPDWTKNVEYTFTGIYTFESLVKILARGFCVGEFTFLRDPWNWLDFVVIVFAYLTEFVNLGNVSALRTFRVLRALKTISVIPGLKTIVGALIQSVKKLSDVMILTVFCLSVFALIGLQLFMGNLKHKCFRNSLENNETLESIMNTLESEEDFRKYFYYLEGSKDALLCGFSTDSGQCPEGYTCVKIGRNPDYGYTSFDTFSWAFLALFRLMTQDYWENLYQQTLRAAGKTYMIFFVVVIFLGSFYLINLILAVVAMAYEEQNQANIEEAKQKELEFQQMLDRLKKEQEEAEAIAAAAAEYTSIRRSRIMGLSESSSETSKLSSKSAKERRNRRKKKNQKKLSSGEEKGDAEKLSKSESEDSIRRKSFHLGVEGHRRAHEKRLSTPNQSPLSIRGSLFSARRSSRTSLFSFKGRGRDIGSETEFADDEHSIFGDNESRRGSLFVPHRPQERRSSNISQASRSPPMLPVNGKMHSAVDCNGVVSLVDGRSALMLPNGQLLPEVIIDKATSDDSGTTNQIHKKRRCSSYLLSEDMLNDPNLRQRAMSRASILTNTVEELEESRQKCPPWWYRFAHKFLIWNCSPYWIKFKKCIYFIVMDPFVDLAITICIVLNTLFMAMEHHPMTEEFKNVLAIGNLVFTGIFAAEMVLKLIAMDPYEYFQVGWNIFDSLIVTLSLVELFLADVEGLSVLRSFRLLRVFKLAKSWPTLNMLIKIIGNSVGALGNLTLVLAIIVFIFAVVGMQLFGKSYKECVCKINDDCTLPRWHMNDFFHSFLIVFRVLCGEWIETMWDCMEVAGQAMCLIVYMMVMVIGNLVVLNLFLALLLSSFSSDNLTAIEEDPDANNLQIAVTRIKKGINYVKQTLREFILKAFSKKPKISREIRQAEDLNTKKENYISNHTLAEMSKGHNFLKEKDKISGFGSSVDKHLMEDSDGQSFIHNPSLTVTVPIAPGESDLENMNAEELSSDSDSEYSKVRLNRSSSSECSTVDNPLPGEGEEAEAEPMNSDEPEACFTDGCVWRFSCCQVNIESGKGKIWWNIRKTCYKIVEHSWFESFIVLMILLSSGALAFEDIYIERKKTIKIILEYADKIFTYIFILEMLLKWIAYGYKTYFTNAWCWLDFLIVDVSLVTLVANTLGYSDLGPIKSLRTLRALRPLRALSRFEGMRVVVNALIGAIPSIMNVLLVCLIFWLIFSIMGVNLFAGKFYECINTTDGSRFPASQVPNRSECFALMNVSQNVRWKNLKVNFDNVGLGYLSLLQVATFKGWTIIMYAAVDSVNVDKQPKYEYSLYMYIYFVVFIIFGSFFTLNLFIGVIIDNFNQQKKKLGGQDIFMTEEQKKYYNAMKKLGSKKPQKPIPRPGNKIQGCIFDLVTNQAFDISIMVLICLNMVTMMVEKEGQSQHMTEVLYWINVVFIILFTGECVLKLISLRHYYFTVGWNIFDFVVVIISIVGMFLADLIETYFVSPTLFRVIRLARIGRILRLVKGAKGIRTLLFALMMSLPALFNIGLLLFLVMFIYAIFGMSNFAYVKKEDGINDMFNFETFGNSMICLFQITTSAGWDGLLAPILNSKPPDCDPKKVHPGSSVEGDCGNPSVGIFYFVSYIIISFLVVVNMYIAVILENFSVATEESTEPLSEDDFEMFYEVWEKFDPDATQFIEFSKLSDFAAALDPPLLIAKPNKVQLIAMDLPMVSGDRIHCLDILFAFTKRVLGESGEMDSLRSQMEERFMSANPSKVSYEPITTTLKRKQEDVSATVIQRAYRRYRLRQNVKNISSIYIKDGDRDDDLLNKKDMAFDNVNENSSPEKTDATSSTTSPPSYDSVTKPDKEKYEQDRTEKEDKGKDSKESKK
Experiment: cell-based
Assay type: cell-based
Conditions: peptide at 0.2 μM; first of two Nav1.7 columns (probably TP1); 100% = no change
Method: This example describes a method for assaying ion channel activity in cells. […] HEK293 or CHO cells from the American Type Culture Collection (ATCC) were transfected with the appropriate ion channel before use. […] Percent values were calculated using the following formula: % activation=(IPeptide/Icontrol)×100%, where IPeptide is the current produced by co-application a peptide with agonist, and Icontrol refers to the current produced by stimulation in control. […]
Quick reference for Activity of Nav1.7 with peptide, expressed as a percentage of the reference compound among some substances
Reply numerically in %, unit not repeated.

• 6 (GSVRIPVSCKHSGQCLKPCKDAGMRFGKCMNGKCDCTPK) [compound 6] = 98

**Query** Requested read-out: Activity of Nav1.7 with peptide, expressed as a percentage of the reference compound. Entry: 36 (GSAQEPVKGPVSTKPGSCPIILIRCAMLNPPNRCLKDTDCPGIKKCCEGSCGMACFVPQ) [compound 36]
**Result** 108

**Query** Another: 14 (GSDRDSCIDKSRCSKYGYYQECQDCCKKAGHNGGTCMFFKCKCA) [compound 14]
**Result** 83

**Query** Another: 3 (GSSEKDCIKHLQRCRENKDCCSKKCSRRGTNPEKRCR) [compound 3]
**Result** 107

**Query** Another: 18 (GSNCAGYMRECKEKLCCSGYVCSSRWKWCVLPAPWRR) [compound 18]
**Result** 85

**Query** Another: 12 (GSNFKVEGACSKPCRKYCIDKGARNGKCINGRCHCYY) [compound 12]
**Result** 61

**Query** Another: 27 (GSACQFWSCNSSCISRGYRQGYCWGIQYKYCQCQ) [compound 27]
**Result** 104

**Query** Another: 39 (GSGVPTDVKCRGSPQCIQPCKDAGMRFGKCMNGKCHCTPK) [compound 39]
**Result** 42

**Query** Another: 11 (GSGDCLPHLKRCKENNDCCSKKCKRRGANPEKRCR) [compound 11]
**Result** 107

---

Quick reference for Activity of 5HT3a with peptide (percentage of the reference compound) among some substances
Biological target: 5HT3a (Homo sapiens, UniProt P46098)
Construct: host or cells: HEK293 or CHO
Sequence (P46098 whole entry, looked up): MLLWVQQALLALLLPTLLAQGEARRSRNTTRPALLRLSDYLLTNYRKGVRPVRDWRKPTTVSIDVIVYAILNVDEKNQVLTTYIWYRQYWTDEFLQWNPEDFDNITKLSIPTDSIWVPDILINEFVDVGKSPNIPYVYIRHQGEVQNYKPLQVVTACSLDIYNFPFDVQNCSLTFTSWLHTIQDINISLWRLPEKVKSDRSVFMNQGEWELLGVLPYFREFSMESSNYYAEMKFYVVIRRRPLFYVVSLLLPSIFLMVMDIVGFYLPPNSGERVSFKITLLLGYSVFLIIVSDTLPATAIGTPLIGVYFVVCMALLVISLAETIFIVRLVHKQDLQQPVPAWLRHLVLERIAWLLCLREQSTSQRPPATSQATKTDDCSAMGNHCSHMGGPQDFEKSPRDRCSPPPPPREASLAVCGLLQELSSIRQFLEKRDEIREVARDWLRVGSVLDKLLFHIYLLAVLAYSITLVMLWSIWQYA
Assay: Ion channel panel (IonWorks Barracuda): 5HT3a
Assay type: cell-based
Reply numerically in %, unit not repeated.

Would you please look over these solved cases?
- 23 (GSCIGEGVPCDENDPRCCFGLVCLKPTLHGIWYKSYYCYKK) [compound 23]: 101
- 6 (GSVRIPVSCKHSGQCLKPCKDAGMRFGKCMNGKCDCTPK) [compound 6]: 84
- 26 (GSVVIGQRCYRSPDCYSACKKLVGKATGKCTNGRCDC) [compound 26]: 96
- 24 (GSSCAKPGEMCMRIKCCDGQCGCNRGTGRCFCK) [compound 24]: 84
- 10 (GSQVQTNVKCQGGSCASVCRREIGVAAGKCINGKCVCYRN) [compound 10]: 104

**Query** Requested read-out: Activity of 5HT3a with peptide (percentage of the reference compound). Entry: 25 (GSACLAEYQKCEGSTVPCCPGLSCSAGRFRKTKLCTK) [compound 25]
**Result** 94

**Query** Another: 36 (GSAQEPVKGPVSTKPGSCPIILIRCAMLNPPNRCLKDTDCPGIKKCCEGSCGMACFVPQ) [compound 36]
**Result** 83

**Query** Another: 14 (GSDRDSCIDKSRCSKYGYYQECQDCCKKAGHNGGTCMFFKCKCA) [compound 14]
**Result** 78

**Query** Another: 19 (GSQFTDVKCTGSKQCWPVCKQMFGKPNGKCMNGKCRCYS) [compound 19]
**Result** 69

---

biological target: Kv1.3 (Homo sapiens); construct: host or cells: HEK293 or CHO; experiment: cell-based; type: cell-based; details: peptide at 20 μM; 100% = no change, <100% = inhibition
reported metric: Activity of Kv1.3 with peptide (percentage of the reference compound) (%)
Reply numerically in %, unit not repeated.

Would you please look over these solved cases?
• 27 (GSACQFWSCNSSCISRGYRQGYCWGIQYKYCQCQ) [compound 27] = 100
• 10 (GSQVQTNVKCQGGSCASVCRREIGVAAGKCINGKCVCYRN) [compound 10] = 93
• 30 (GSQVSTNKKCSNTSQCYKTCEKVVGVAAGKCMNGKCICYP) [compound 30] = 71
• 21 (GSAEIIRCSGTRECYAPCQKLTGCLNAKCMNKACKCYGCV) [compound 21] = 5
• 15 (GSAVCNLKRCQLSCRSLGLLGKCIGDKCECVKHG) [compound 15] = 90

**Query** Requested read-out: Activity of Kv1.3 with peptide (percentage of the reference compound). Entry: 23 (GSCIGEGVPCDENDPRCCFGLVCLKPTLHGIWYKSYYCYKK) [compound 23]
**Result** 77

**Query** Another: 14 (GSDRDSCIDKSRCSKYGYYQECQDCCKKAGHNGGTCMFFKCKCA) [compound 14]
**Result** 82

**Query** Another: 6 (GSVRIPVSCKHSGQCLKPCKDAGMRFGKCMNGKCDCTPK) [compound 6]
**Result** 0

---

molecular target: Nav1.5 (Homo sapiens, UniProt Q14524); assay: in vitro; details: peptide at 0.2 μM; first of two Nav1.5 columns (probably TP1); 100% = no change
Sequence (Q14524 whole entry): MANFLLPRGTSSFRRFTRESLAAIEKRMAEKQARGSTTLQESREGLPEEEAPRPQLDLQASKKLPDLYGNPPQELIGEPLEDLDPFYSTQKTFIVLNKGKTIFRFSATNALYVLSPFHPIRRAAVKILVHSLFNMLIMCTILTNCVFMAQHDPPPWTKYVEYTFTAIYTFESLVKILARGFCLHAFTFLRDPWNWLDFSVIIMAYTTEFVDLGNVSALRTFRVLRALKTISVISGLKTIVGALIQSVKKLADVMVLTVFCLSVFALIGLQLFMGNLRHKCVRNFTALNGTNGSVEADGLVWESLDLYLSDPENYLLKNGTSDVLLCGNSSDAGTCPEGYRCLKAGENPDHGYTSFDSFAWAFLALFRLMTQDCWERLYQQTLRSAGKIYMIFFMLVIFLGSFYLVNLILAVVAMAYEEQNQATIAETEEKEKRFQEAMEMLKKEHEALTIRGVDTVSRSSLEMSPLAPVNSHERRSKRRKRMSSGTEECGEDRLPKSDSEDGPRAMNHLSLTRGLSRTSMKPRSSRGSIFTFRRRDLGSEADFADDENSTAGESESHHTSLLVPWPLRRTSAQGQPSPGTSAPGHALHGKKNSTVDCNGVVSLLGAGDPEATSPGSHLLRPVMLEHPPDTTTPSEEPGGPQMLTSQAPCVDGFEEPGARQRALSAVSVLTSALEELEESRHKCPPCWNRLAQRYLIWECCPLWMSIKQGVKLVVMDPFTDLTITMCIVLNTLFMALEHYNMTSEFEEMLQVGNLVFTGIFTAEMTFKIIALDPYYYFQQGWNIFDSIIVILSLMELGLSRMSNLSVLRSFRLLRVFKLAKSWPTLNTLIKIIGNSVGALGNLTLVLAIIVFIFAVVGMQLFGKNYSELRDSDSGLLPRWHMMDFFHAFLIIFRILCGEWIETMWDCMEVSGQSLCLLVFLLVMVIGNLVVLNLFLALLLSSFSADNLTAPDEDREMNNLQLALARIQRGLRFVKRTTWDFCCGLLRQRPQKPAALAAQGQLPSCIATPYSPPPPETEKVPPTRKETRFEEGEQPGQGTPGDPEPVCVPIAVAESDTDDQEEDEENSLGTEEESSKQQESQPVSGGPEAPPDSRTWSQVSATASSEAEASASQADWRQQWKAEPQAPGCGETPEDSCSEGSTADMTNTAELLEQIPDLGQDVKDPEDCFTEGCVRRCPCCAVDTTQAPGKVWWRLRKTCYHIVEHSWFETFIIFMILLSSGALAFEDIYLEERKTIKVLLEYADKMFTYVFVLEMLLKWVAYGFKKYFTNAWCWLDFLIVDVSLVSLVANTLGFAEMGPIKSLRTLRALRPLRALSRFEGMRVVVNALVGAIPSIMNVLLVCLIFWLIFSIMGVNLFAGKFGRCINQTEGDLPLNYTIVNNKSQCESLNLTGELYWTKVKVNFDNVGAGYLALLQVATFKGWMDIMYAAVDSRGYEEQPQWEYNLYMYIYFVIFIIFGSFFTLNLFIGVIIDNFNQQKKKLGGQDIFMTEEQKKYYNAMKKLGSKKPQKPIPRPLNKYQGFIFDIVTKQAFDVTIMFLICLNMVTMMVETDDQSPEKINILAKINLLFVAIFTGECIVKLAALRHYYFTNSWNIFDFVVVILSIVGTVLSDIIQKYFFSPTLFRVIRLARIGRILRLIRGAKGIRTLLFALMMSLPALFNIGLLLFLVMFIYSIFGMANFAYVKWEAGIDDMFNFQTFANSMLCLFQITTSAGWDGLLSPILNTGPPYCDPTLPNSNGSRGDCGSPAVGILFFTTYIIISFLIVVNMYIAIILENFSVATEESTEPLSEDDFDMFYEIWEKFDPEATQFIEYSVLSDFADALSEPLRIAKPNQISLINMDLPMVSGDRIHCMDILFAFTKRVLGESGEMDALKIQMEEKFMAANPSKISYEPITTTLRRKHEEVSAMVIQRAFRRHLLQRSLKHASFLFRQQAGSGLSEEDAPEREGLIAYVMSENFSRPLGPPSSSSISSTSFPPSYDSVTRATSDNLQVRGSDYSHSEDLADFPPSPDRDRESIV
Quick reference for Activity of Nav1.5 with peptide, expressed as a percentage of the reference compound among some substances
Reply numerically in %, unit not repeated.

Would you please look over these solved cases?
- 21 (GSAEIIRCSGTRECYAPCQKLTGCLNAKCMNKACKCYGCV) [compound 21]: 108
- 16 (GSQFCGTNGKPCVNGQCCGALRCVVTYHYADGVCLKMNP) [compound 16]: 107
- 38 (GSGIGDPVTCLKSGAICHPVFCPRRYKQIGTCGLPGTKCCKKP) [compound 38]: 124
- 12 (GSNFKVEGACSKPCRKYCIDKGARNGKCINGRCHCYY) [compound 12]: 98
- 6 (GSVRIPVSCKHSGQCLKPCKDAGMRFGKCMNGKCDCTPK) [compound 6]: 105
- 5 (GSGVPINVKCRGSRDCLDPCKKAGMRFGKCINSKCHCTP) [compound 5]: 107
- 34 (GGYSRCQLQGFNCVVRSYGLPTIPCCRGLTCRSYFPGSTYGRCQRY) [compound 34]: 111
- 13 (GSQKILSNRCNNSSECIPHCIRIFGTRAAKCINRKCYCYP) [compound 13]: 98

Lab note: next substance to report on.
**Query** # get_value(readout= Activity of Nav1.5 with peptide, expressed as a percentage of the reference compound, system= Nav1.5 (Homo sapiens, UniProt Q14524)) for 15 (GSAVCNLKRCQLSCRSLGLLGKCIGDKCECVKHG) [compound 15]
**Result** 90
